- Protocol summary: Henry solubility constant Hcp at 298.15 K (mol/(m3 Pa))
- Condition label: reference: Albanese et al. (1987)
Decision: Henry solubility constant Hcp >= 0.01 yields label 1, all other cases yield label 0.

INSERT INTO assay_data (compound, label_class) VALUES
  ('Cl/C=C/CCl [trans-1,3-dichloropropene]', 'label 0'),
  ('CC(Br)CBr (stereo not given) [1,2-dibromopropane]', 'label 0'),
  ('ClC/C=C/CCl [(E)-1,4-dichloro-2-butene]', 'label 1'),
  ('ClCCCCl [1,3-dichloropropane]', 'label 0'),
  ('C=C(Cl)CCl [2,3-dichloropropene]', 'label 0'),
  ('ClCC(Cl)CCl [1,2,3-trichloropropane]', 'label 1'),
  ('ClCCCCCl [1,4-dichlorobutane]', 'label 1'),
  ('Cl/C=C\CCl [cis-1,3-dichloropropene]', 'label 0'),
  ('CC(Cl)CCl (stereo not given) [1,2-dichloropropane]', 'label 0');

Where do the numbers come from? From Sander's compilation of Henry's law constants (doi:10.1080/09593338709384529).
